B1: TPR 5TU (parent)
chain: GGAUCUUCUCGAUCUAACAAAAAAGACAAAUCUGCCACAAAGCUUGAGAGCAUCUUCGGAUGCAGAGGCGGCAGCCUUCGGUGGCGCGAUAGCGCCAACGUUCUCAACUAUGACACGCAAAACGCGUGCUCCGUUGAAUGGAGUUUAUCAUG

Variants of: B1
Test: polymerase ribozyme fitness, log enrichment relative to wild type (log ratio); higher = more active; in vitro selection for triplet polymerase activity
Fewer inactive variants are shown than the library holds.
Measured polymerase ribozyme fitness (log ratio) accompanies every entry in the list below.
Respond with the number and no other words.

Sequence variant	polymerase ribozyme fitness (log ratio)
U6A A21U C76A G86U	-2.79
A119U G126A U135C G141C	-3.75
G58C C76A G83U	-2.66
A39C G94A	-2.88
C93U G152U	-3.49

Exam item: I have this variant here, A3U C108U , and I need its recorded polymerase ribozyme fitness (log ratio).
Marked response: -3.59

Exam item: I have this variant here, G81A G86A C99G , and I need its recorded polymerase ribozyme fitness (log ratio).
Marked response: -1.98

Exam item: I have this variant here, A28U C85A , and I need its recorded polymerase ribozyme fitness (log ratio).
Marked response: -4.11
